- assay target: T1, TX1BP3, O14907
- T1 sequence (O14907 10-122, limits assumed, looked up): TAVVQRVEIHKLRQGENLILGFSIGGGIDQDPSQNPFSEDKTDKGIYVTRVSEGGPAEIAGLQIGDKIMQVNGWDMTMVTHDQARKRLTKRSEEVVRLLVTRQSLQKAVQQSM
- test: holdup assay
- Parameters: key: below the threshold = too weak to quantify, mostly under pKd 3.1 to 4
- study conditions: plain residues with an end cap or a label only (N-terminal biotin on a linker: ado-ado)
endpoint label: pKd

{"columns": ["binder", "endpoint label", "value observed"],
 "data": [
  ["DFKHTKSFII [JAM2, P57087]", "pKd", "below the threshold"],
  ["NSTHNLKDYV [CLDN20, P56880]", "pKd", "below the threshold"],
  ["TNSKQGETTV [FZD1, Q9UP38]", "pKd", 4.17],
  ["ATKDKKITTV [EXOC4, Q96A65]", "pKd", 3.91]
]}
